# Target under test: T1, Pin3, Q06449
# T1 sequence (Q06449 53-122, looked up): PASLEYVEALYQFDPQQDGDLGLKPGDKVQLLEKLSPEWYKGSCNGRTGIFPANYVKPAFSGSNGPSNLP
# Protocol details: SPOT array
# Applied conditions: median of control spots 2171
Observation type: SPOT intensity
One number for each entry.

Observe how each entry below is paired with its result.
Binder: RFKRHRLEFPFNESE
SPOT intensity: 15
//
Binder: APKREAPKPPANTSP
SPOT intensity: 2
//
Binder: LRIKRKPVQTFFEFI
SPOT intensity: 5
//
Binder: DDEDVPPQLPTRTKS
SPOT intensity: 2
//
Binder: AGKRRLPLVRFKASD
SPOT intensity: 8
//
Binder: NRPAIRIPSLKKPAL
SPOT intensity: 9

Provide SPOT intensity values for the following items, in order.
1. MTKTPETSPPKRPMG
2. KKIRLIFTYPSTVGR
3. GATNNAPTLPKRKNP

[24, 31, 0]

Provide SPOT intensity values for the following items, in order.
1. PPPPPPPPPPLPQSL
2. IAPIPMPKPNPTHIS

0
43

Item LLLLFVPDSPYDPAI has what recorded SPOT intensity? 0
